These entries and their values trace back to ChEMBL document CHEMBL1131252.

# Measured target: Stromelysin-1 (Homo sapiens, UniProt P08254)
# Sequence (P08254 whole entry): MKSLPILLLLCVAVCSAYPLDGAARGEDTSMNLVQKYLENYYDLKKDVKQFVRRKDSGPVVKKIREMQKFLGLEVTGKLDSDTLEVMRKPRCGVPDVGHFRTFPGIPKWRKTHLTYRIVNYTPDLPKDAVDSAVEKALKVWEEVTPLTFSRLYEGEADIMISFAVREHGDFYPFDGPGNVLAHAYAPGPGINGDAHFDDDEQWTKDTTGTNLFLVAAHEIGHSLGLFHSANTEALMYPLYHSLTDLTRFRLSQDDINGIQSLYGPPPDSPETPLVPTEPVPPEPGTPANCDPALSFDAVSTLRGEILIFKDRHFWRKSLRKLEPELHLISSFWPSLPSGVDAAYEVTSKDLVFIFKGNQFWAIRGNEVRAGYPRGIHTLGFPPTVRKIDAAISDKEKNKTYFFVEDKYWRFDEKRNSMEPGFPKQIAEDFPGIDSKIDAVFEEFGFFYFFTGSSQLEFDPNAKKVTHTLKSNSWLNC
# Assay remarks: Inhibition of stromelysin (Matrix metalloprotease-3)
Metric: IC50 (µM)
A number alone suffices; assume µM.

Lab note: need IC50 for O=C1N[C@@H](CS)C(=O)N(CC2CCCCC2)[C@H]1CC1CCCCC1 on Stromelysin-1 (Homo sapiens, UniProt P08254), anyone have it?
2.3

###

# Measured target: Interstitial collagenase (Homo sapiens, UniProt P03956)
# Sequence (P03956 whole entry): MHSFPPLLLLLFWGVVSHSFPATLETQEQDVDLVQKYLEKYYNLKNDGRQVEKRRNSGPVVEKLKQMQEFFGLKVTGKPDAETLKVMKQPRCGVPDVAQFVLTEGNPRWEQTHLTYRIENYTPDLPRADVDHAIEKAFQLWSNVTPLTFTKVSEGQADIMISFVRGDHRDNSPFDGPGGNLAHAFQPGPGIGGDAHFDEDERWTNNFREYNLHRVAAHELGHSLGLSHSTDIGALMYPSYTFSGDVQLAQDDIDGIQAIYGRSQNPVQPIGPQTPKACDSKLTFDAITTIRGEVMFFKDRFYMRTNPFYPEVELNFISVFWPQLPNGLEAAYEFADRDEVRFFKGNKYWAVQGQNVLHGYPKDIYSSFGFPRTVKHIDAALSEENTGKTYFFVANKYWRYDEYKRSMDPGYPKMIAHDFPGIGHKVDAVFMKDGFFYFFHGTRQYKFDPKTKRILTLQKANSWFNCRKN
# Assay remarks: Inhibition of collagenase-1 (Matrix metalloprotease-1)
Metric: IC50 (µM)

- Smiles string: "CCCCCCN1C(=O)[C@H](Cc2cccnc2)NC(=O)[C@H]1CS"
  Result unit: "µM"
  IC50: 2
- Smiles string: "CCCCCCCCN1C(=O)[C@H](Cc2cccnc2)NC(=O)[C@H]1CS"
  Result unit: "µM"
  IC50: 10

a: O=C1N[C@H](CS)C(=O)N(CC2CCCCC2)[C@H]1CC1CCCCC1
b: O=C1N[C@H](CS)C(=O)N(CC2CCCCC2)[C@@H]1CC1CCCCC1
c: O=C1N[C@@H](CS)C(=O)N(CC2CCCCC2)[C@H]1CC1CCCCC1
# ascending order, key=IC50 Please respond with the labels ordered as the question requires.
c, a, b

###

# Measured target: Stromelysin-1 (Homo sapiens, UniProt P08254)
# Assay remarks: Inhibition of Matrix Metalloprotease-3
pIC50: −log10 of the molar value.
Metric: pIC50

Previously resolved entries follow.
- Smiles string: "COc1ccc(CN2C(=O)[C@H](CS)NC(=O)[C@@H]2Cc2ccccc2)cc1"
  pIC50: 5.39
- Smiles string: "CCCC[C@H]1C(=O)N[C@@H](CS)C(=O)N1CC1CCCCC1"
  pIC50: 5.47
- Smiles string: "O=C1N[C@@H](CS)C(=O)N(CC2CCCCC2)[C@H]1CC1CCCCC1"
  pIC50: 5.54

a: O=C1N[C@@H](CS)C(=O)N(Cc2ccc3ccccc3n2)[C@H]1CC1CCCCC1
b: COc1ccc(CN2C(=O)[C@H](CS)NC(=O)[C@@H]2CC2CCCCC2)cc1
c: CCCCN1C(=O)[C@H](CS)NC(=O)[C@@H]1Cc1ccccc1
Given 3 compounds, produce a descending ranking by pIC50. The labels, placed in the requested order, form the answer.
a, b, c
(a: 5.62, b: 5.42, c: 4.72)

###

# Measured target: Matrilysin (Homo sapiens)
# Sequence (P09237 whole entry): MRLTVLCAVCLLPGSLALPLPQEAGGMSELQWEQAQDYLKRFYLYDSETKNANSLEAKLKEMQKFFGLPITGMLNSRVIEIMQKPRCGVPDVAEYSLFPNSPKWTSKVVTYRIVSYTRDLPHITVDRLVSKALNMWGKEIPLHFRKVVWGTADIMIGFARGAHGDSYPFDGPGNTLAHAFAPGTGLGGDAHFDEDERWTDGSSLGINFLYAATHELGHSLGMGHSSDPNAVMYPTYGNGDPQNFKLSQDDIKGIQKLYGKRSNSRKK
pIC50: −log10 of the molar value.
Metric: pIC50

Which pIC50 value belongs to O=C1N[C@H](CS)C(=O)N(CC2CCCCC2)[C@H]1CC1CCCCC1 ?
< 4.40

###

# Measured target: Matrix metalloproteinase-9 (Homo sapiens, UniProt P14780)
# Sequence (P14780 whole entry): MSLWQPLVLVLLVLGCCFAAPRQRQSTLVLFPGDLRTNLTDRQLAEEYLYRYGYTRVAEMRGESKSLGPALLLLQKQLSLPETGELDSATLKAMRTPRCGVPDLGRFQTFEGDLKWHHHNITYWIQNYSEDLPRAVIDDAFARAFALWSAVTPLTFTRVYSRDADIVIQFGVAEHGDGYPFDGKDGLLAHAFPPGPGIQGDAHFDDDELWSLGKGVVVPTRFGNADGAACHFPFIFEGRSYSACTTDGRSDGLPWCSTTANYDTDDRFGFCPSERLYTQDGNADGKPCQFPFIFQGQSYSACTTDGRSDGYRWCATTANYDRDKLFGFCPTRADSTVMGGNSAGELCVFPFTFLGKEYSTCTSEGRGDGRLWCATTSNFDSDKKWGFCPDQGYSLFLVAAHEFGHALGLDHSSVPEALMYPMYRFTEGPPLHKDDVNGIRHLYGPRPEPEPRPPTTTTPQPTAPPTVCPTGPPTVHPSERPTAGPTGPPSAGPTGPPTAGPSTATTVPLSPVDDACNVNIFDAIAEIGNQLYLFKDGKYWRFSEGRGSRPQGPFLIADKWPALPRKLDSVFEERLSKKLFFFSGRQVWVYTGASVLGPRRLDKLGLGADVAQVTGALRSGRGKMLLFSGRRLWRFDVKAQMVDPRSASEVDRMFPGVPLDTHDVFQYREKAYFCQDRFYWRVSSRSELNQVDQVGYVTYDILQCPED
# Assay remarks: Inhibition of Matrix Metalloprotease-9
pIC50: −log10 of the molar value.
Metric: pIC50

Solved cases below.
- Smiles string: "COc1ccc(CN2C(=O)[C@H](CS)NC(=O)[C@@H]2CC2CCCCC2)cc1"
  Endpoint result: 7.10
- Smiles string: "O=C1N[C@@H](CS)C(=O)N(Cc2ccc3ccccc3n2)[C@H]1CC1CCCCC1"
  Endpoint result: 7.06
- Smiles string: "COc1ccc(CN2C(=O)[C@H](CS)NC(=O)[C@@H]2Cc2ccccc2)cc1"
  Endpoint result: 5.63

1: CCCCN1C(=O)[C@H](CS)NC(=O)[C@@H]1Cc1ccccc1
2: O=C1N[C@@H](CS)C(=O)N(CC2CCCCC2)[C@H]1CC1CCCCC1
3: CCCC[C@H]1C(=O)N[C@@H](CS)C(=O)N1CC1CCCCC1
Rank order required: pIC50, descending. Answer by naming the labels in the order asked.
2, 3, 1
(2: 6.92, 3: 6.43, 1: 5.63)
